Origin of values: ChEMBL document CHEMBL4665851

- Tested on: Mycobacterium tuberculosis H37Rv
- assay.comment: Potency index, ratio of ciprofloxacin MIC to test compound MIC for Inhibition of MmA1-mediated antitubercular activity against Mycobacterium tuberculosis H37Rv incubated for 5 days by MABA assay
- experimental.context: time 5.0 day
assay.metric: Ratio

query.smiles	result
O=C(CN1CCN(c2ccccc2)CC1)Nc1cccc(C(=O)O)c1	> 2
O=C(CN1CCCCC1)Nc1cccc(C(=O)O)c1	> 2

Input: Using the record for O=C(CNc1ccc(F)cc1F)Nc1cccc(C(=O)O)c1 , state its measured Ratio.
Output: > 2

Input: Please give the documented Ratio of O=C(CN1CCCC1)Nc1cccc(C(=O)O)c1
Output: > 2

Input: Let me know recorded Ratio for CN1CCN(CC(=O)Nc2cccc(C(=O)O)c2)CC1 , thanks.
Output: > 2
